- procedure-details: in vitro
- condition-notes: African green monkey
Just a reminder that ties go to no (0): only CC50 strictly below 10 µM counts as yes (1).

Report whether reported CC50 is lower than 10 µM (strictly) for COc1cc(NC(C(=O)N2CCc3cc(OC)c(C(F)(F)F)cc32)c2ccc(Cl)cc2OCCCC(=O)O)cc(-n2cncn2)c1 (single isomer, unassigned) [Compound 12A] no (0)

Check if CC50 falls below 10 µM for COc1cc(NC(C(=O)N2CCc3ccc(C(F)(F)F)cc32)c2ccc(F)cc2OCCO)cc(-n2cncn2)c1 (single isomer, unassigned) [Compound 1A] . yes (1)

Check if CC50 falls below 10 µM for COc1cc(NC(C(=O)N2CCc3cc(OC)c(OC(F)(F)F)cc32)c2ccc(Cl)cc2OCCO)cc(-n2cncn2)c1 (single isomer, unassigned) [Compound 8A] . no (0)

Identify whether the molecule COc1cc(NC(C(=O)N2CCc3cc(OC)c(C(F)(F)F)cc32)c2ccc(F)cc2OCCO)cc(-n2cncn2)c1 (single isomer, unassigned) [Compound 2A] records CC50 below 10 µM. no (0)

Dear reviewer, please state whether COc1cc(NC(C(=O)N2CCc3cc(OC)c(C(F)(F)F)cc32)c2ccc(Cl)cc2OCCO)cc(-n2cncn2)c1 (single isomer, unassigned) [Compound 5A] has CC50 strictly beneath 10 µM. no (0)

Threshold test, CC50 < 10 µM: COc1cc(NC(C(=O)N2CCc3cc(OC)c(C(F)(F)F)cc32)c2ccc(Cl)cc2OCCCC(=O)O)cc(-n2cncn2)c1 (racemic) [Compound 12] no (0)

Hello, I'm reviewing records and need to know if CC50 of COc1cc(NC(C(=O)N2CCc3ccc(OC(F)(F)F)cc32)c2ccc(Cl)cc2OCCCC(=O)O)cc(-n2cncn2)c1 (racemic) [Compound 13] is below 10 µM. Could you check? no (0)

Threshold test, CC50 < 10 µM: COc1cc(NC(C(=O)N2CCc3cc(OC)c(OC(F)(F)F)cc32)c2ccc(Cl)cc2OCCO)cc(-n2cncn2)c1 (racemic) [Compound 8] yes (1)
